- target-or-test-system: C-terminal GST-tagged, recombinant, human IGF-1R, amino acids 954-1367 (Homo sapiens, UniProt P08069)
- Construct: human IGF-1R, amino acids 954-1367 expressed by baculovirus in Sf21 cells; GST (C)
- Sequence (P08069 954-1367): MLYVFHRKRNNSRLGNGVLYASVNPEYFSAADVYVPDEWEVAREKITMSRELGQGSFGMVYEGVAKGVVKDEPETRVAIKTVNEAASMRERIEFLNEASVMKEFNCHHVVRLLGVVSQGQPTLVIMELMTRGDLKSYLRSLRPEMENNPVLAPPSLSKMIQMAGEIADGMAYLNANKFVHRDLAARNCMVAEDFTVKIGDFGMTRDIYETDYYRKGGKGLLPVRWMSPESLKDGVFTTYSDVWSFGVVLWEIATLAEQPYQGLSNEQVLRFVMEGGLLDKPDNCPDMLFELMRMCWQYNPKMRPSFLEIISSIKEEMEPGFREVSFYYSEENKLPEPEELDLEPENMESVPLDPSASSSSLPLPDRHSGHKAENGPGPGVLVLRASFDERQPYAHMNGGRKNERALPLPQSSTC
- protocol-description: IGF-1R kinase activity, homogenous time-resolved fluorescence (HTRF) in vitro kinase assay
- condition-info: IGF-1R kinase HTRF assay, ATP 50 μM, biotinylated peptide substrate 0.5 μM, 60 minutes at room temperature
pIC50: −log10 of the molar value.
Give measured pIC50 for each item. Keep answers brief.

Noted for COc1cc(-c2nc3ccccn3c2-c2ccnc(Nc3ccc4c(c3)CCNC4)n2)ccc1OCc1ccccc1 : its pIC50 reads > 7.60

Noted for COc1cc(-c2nc3sccn3c2-c2ccnc(Nc3ccc(CN(C)C)cc3)n2)ccc1OCc1ccccc1 : its pIC50 reads 7.00 to 7.60

Noted for CCc1cc(-c2nc3ccccn3c2-c2ccnc(Nc3cccc(CCN(C)C)c3)n2)ccc1OCc1ccccc1 : its pIC50 reads < 6.00

Noted for COc1cc(-c2nc3ccccn3c2-c2ccnc(Nc3ccc(N4CCS(=O)(=O)CC4)cc3)n2)ccc1OCc1ccccc1 : its pIC50 reads 6.30 to 7.00

Noted for COc1cc(N(C)C)ccc1Nc1nccc(-c2c(-c3ccc(OCc4ccccc4)c(OC)c3)nc3ccccn23)n1 : its pIC50 reads 6.30 to 7.00

Noted for COc1cc(-c2nc3ccccn3c2-c2ccnc(Nc3cnn(CCN4CCCC4)c3)n2)ccc1OCc1ccccc1 : its pIC50 reads 6.30 to 7.00

Noted for Fc1ccc(Nc2nccc(-c3c(-c4ccc(OCc5ccccc5)cc4)nc4ccccn34)n2)c(F)c1 : its pIC50 reads < 6.00

---

- target-or-test-system: C-terminal GST-tagged, recombinant, human IGF-1R, amino acids 954-1367 (Homo sapiens)
- Construct: human IGF-1R, amino acids 954-1367 expressed by baculovirus in Sf21 cells; GST (C)
- protocol-description: IGF-1R kinase activity, homogenous time-resolved fluorescence (HTRF) in vitro kinase assay
- condition-info: IGF-1R kinase HTRF assay, ATP 50 μM, biotinylated peptide substrate 0.5 μM, 60 minutes at room temperature
pIC50: −log10 of the molar value.
Give measured pIC50 for each item. Keep answers brief.

Noted for COc1cc(-c2nc3ccccn3c2-c2ccnc(Nc3ccc(CCN4CCCC4)cc3)n2)ccc1OCc1ccccc1 : its pIC50 reads 7.00 to 7.60

Noted for OCCn1cc(Nc2nccc(-c3c(-c4ccc(OCc5ccccc5)cc4)nc4ccccn34)n2)cn1 : its pIC50 reads 6.30 to 7.00

Noted for COc1cc(-c2nc3sccn3c2-c2ccnc(Nc3cccc(CCN(C)C)c3)n2)ccc1OCc1ccccc1 : its pIC50 reads 7.00 to 7.60

Noted for COc1cc(-c2nc3ccccn3c2-c2ccnc(Nc3ccc(NC(=O)CN(C)C)cc3)n2)ccc1OCc1ccccc1 : its pIC50 reads 7.00 to 7.60

Noted for COc1ccc(N2CCS(=O)(=O)CC2)cc1Nc1nccc(-c2c(-c3ccc(OCc4ccccc4)c(OC)c3)nc3ccccn23)n1 : its pIC50 reads > 7.60

---

- target-or-test-system: C-terminal GST-tagged, recombinant, human IGF-1R, amino acids 954-1367 (Homo sapiens)
- Construct: human IGF-1R, amino acids 954-1367 expressed by baculovirus in Sf21 cells; GST (C)
- protocol-description: IGF-1R kinase activity, homogenous time-resolved fluorescence (HTRF) in vitro kinase assay
- condition-info: IGF-1R kinase HTRF assay, ATP 50 μM, biotinylated peptide substrate 0.5 μM, 60 minutes at room temperature
Give measured IC50 for each item. Keep answers brief.

The compound COc1ccc(N2CCSCC2)cc1Nc1nccc(-c2c(-c3ccc(OCc4ccccc4)c(OC)c3)nc3ccccn23)n1 , tested on C-terminal GST-tagged, recombinant, human IGF-1R, amino acids 954-1367 (Homo sapiens), showed IC50 of 101 to 500 nM

The compound CN(C)CCc1cccc(Nc2nccc(-c3c(-c4ccc(OCc5ccccc5)c(C(F)(F)F)c4)nc4ccccn34)n2)c1 , tested on C-terminal GST-tagged, recombinant, human IGF-1R, amino acids 954-1367 (Homo sapiens), showed IC50 of > 1000 nM

The compound COc1cc(-c2nc3ccccn3c2-c2ccnc(Nc3ccc(N4CCN(CCO)CC4)cc3)n2)ccc1OCc1ccccc1 , tested on C-terminal GST-tagged, recombinant, human IGF-1R, amino acids 954-1367 (Homo sapiens), showed IC50 of 25 to 100 nM

The compound COc1cc(N2CCC(N(C)C)CC2)ccc1Nc1nccc(-c2c(-c3ccc(OCc4ccccc4)c(OC)c3)nc3ccccn23)n1 , tested on C-terminal GST-tagged, recombinant, human IGF-1R, amino acids 954-1367 (Homo sapiens), showed IC50 of 25 to 100 nM

---

Give measured IC50 for each item. Keep answers brief.
- target-or-test-system: C-terminal GST-tagged, recombinant, human IGF-1R, amino acids 954-1367 (Homo sapiens)
- Construct: human IGF-1R, amino acids 954-1367 expressed by baculovirus in Sf21 cells; GST (C)
- protocol-description: IGF-1R kinase activity, homogenous time-resolved fluorescence (HTRF) in vitro kinase assay
- condition-info: IGF-1R kinase HTRF assay, ATP 50 μM, biotinylated peptide substrate 0.5 μM, 60 minutes at room temperature

Noted for COc1ccc(NC(=O)CN(C)C)cc1Nc1nccc(-c2c(-c3ccc(OCc4ccccc4)cc3)nc3ccccn23)n1 [Example 72] : its IC50 reads < 25 nM

Noted for COc1cc(N)ccc1Nc1nccc(-c2c(-c3ccc(OCc4ccccc4)c(OC)c3)nc3ccccn23)n1 [Example 46] : its IC50 reads 25 to 100 nM

Noted for COc1cc(N2CCC(N(C)C)CC2)ccc1Nc1nccc(-c2c(-c3ccc(OCc4ccccc4)c(OC)c3)nc3sccn23)n1 [Example 84] : its IC50 reads < 25 nM

Noted for CN(C)CCc1cccc(Nc2nccc(-c3c(-c4ccc(OCc5ccc(F)cc5)cc4)nc4ccccn34)n2)c1 [Example 20] : its IC50 reads 101 to 500 nM

Noted for COc1cc(N2CCC(N3CCN(C)CC3)CC2)ccc1Nc1nccc(-c2c(-c3ccc(OCc4ccccc4)cc3)nc3ccccn23)n1 [Example 13] : its IC50 reads 101 to 500 nM

Noted for COc1cc(N2CCS(=O)(=O)CC2)ccc1Nc1nccc(-c2c(-c3ccc(OCc4ccccc4)c(OC)c3)nc3ccccn23)n1 [Example 63] : its IC50 reads 25 to 100 nM

Noted for COc1ccccc1COc1ccc(-c2nc3ccccn3c2-c2ccnc(Nc3cccc(CCN(C)C)c3)n2)cc1 [Example 16] : its IC50 reads 101 to 500 nM

Noted for COc1ccc(S(C)(=O)=O)cc1Nc1nccc(-c2c(-c3ccc(OCc4ccccc4)c(OC)c3)nc3ccccn23)n1 [Example 34] : its IC50 reads 25 to 100 nM

Noted for COc1cc(C2CCNCC2)ccc1Nc1nccc(-c2c(-c3ccc(OCc4ccccc4)c(OC)c3)nc3ccccn23)n1 [Example 57] : its IC50 reads < 25 nM

Noted for CN(C)CCc1cccc(Nc2nccc(-c3c(-c4ccc(OCc5cccc(F)c5)cc4)nc4ccccn34)n2)c1 [Example 19] : its IC50 reads 101 to 500 nM

Noted for CN(C)CCc1cccc(Nc2nccc(-c3c(-c4ccc(OCc5ccccc5)cc4)nn4ncccc34)n2)c1 [Example 76] : its IC50 reads < 25 nM

Noted for COc1ccccc1Nc1nccc(-c2c(-c3ccc(OCc4ccccc4)cc3)nc3ccccn23)n1 [Example 3] : its IC50 reads > 1000 nM
